Test system: Canis familiaris
protocol-notes: In vivo percent change in canine mean arterial blood pressure (MABP) at 300 ug/Kg/min.
Type: functional, Canis lupus familiaris
Square brackets hold non-standard residues; d marks the D form. Peptide text beside a SMILES is read from it. * marks the point of attachment. ξ: configuration not given here. Butanoyl(4-(4-HOPh)) = O=C(CCCc1ccc(O)cc1)*; ξαMeY = CC(N)(Cc1ccc(O)cc1)C(=O)O; ξαMeF = CC(N)(Cc1ccccc1)C(=O)O
Measured Change of individual entries
Could you give me the number in %? Just the number is fine.

Some compounds with known Change results, for comparison:
compound: CC(Cc1ccc(O)cc1)(NC(=O)[C@@H]1CCCN1C(=O)CCCc1ccc(O)cc1)C(=O)NCC(=O)N1CCC[C@H]1C(=O)O (stereo partly specified) ({Butanoyl(4-(4-HOPh))}-P[ξαMeY]GP-OH)
Change (%): 3

compound: CC(Cc1ccccc1)(NC(=O)[C@@H]1CCCN1C(=O)CC12CC3CC(CC(C3)C1)C2)C(=O)N[C@@H](CCCN=C(N)N)C(=O)O (stereo partly specified)
Change (%): 3

compound: CC(Cc1ccccc1)(NC(=O)[C@@H]1CCCN1C(=O)CCCc1ccc(O)cc1)C(=O)NCC(=O)N1CCC[C@H]1C(=O)O (stereo partly specified) ({Butanoyl(4-(4-HOPh))}-P[ξαMeF]GP-OH)
Change (%): -6

compound: CC(Cc1ccccc1)(NC(=O)[C@@H]1CCCN1C(=O)CCCc1ccccc1)C(=O)N1CCC[C@H]1C(=O)O (stereo partly specified)
Change (%): 1

(Q) API: value(readout= Change, system= Canis familiaris, query= O=C(NCC(=O)N1CCC[C@H]1C(=O)O)[C@@H](Cc1ccccc1)NC(=O)[C@@H]1CCCN1C(=O)CCCc1ccc(O)cc1 ({Butanoyl(4-(4-HOPh))}-P[dF]GP-OH) )
(A) -1

(Q) Look up Change with Canis familiaris for this compound: `Cl.Cl.NCCCNC(=O)[C@H](Cc1ccccc1)NC(=O)[C@@H]1CCCN1`
(A) -3.5
